test target: Epidermal growth factor receptor (Homo sapiens, UniProt P00533)
Sequence (P00533 whole entry): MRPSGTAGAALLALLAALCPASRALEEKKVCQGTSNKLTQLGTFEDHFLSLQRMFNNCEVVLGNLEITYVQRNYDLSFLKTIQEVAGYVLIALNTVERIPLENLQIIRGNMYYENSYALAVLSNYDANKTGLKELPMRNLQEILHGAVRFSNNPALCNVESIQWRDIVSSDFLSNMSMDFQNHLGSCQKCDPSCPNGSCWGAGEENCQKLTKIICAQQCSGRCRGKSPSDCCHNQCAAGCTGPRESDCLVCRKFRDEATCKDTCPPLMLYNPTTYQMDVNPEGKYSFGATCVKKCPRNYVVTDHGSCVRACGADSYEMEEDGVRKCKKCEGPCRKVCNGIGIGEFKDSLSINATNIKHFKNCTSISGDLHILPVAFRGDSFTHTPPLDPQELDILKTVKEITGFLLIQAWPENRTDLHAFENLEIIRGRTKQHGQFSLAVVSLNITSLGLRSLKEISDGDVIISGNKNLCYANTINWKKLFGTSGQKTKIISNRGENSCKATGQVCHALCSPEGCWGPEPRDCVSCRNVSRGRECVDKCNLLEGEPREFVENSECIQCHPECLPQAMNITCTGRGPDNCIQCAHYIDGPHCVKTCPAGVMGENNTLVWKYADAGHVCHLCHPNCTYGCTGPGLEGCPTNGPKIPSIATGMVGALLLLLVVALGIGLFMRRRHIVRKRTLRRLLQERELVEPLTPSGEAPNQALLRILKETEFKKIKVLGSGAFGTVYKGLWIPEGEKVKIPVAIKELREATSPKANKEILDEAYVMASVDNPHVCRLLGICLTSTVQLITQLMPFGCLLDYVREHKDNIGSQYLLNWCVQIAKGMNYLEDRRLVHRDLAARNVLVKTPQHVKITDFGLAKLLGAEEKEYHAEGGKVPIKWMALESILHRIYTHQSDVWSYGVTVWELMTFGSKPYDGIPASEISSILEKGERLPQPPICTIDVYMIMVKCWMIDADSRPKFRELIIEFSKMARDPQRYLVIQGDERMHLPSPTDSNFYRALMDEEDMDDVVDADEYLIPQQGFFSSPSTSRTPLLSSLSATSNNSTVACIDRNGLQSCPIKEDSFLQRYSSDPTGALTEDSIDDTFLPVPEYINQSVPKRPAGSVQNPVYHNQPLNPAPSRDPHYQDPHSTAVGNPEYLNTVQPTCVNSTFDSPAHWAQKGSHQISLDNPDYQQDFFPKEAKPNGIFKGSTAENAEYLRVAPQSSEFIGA
test method notes: Inhibition of wild type EGFR (unknown origin)
Would you kindly list IC50 for each of these molecules?

Recorded result, "OCCCc1nc(-c2ccc(F)cc2)c(-c2ccnc3[nH]c(-c4ccccc4)cc23)[nH]1" , IC50: < 0.5 nM

Recorded result, "COc1cc(N2CCC(N(C)C)CC2)ccc1Nc1ncc(C(=O)Oc2ccccc2)c(-c2c[nH]c3ccccc23)n1" , IC50: 0.01 nM

Recorded result, "Cc1cc(Nc2ncc(Br)c(Nc3ccccc3NS(=O)(=O)C3CC3)n2)ccc1N1CCCN(C)CC1" , IC50: 70.7 nM

Recorded result, "COc1cc(N2CCN(C(C)=O)CC2)ccc1Nc1nccc(Nc2ccc(Nc3ccc(S(=O)(=O)F)cc3)cc2)n1" , IC50: 210 nM

* * *

test target: Epidermal growth factor receptor (Homo sapiens, UniProt P00533, C797S/L858R/T790M)
Sequence (P00533 25-1210 T790M/C797S/L858R limits assumed): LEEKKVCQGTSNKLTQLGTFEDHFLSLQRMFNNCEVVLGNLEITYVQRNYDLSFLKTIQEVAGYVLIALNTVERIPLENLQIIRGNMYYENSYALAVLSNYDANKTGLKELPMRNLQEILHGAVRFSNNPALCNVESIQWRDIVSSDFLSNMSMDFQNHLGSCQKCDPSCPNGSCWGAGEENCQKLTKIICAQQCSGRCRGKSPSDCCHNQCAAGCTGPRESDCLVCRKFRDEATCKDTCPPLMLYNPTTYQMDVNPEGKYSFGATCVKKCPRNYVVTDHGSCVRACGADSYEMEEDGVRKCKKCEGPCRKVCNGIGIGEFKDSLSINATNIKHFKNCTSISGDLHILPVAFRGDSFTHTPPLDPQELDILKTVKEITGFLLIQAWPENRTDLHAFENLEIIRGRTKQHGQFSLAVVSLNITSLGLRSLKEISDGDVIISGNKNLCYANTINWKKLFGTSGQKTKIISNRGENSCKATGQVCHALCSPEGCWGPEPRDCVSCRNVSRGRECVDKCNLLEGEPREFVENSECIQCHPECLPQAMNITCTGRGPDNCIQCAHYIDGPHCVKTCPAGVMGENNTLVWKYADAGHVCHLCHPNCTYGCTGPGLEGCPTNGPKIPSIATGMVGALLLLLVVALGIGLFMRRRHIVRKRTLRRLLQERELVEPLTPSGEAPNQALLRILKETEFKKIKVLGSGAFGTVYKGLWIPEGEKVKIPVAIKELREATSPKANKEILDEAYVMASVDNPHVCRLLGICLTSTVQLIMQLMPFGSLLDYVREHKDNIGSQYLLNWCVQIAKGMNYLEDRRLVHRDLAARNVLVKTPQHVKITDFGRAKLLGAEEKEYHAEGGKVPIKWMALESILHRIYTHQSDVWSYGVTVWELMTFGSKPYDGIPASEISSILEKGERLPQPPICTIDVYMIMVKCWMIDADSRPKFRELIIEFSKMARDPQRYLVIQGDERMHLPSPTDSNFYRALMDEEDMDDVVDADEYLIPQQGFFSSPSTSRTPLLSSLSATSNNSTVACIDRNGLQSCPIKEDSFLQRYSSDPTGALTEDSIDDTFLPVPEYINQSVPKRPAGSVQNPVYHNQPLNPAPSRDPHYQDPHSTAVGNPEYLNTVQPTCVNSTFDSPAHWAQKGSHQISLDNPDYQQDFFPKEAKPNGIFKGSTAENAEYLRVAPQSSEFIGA
test method notes: Inhibition of EGFR L858R/T790M/C797S triple mutant (unknown origin)
readout label: pIC50
pIC50 is a log-scale quantity: -log10 of the concentration expressed in molar.

Recorded result, "C=CC(=O)Nc1ccc(OC)c(Nc2cc(-c3[nH]c(SCCOC)nc3-c3ccc(F)cc3)ccn2)c1" , pIC50: 7.46

Recorded result, "COc1cc(N2CCC(N3CCN(C)CC3)CC2)ccc1Nc1ncc(Cl)c(-c2cn(S(=O)(=O)C3CC3)c3ccccc23)n1" , pIC50: 8.37

Recorded result, "Cc1cc(Nc2ncc(Cl)c(Nc3ccccc3P(C)(C)=O)n2)ccc1N1CCC(N2CCN(C)CC2)CC1" , pIC50: 9.22

Recorded result, "COc1cc(N2CCC(N3CCN(C)CC3)CC2)ccc1Nc1ncc(Cl)c(-c2cn(S(=O)(=O)C(C)C)c3ccccc23)n1" , pIC50: 6.65

Recorded result, "CCc1cc(Nc2ncc(Br)c(Nc3ccc4c(c3P(C)(C)=O)OCO4)n2)c(OC)cc1N1CCC(N2CC(N(C)C)C2)CC1" , pIC50: 9.40

Recorded result, "COc1cc(N2CCN(C(C)=O)CC2)ccc1Nc1nccc(Nc2ccc(Nc3ccc(S(=O)(=O)F)cc3)cc2)n1" , pIC50: 6.96

Recorded result, "COc1cc(N2CCC(N(C)C)CC2)c(-c2cn[nH]c2)cc1Nc1ncc(Cl)c(Nc2ccccc2P(C)(C)=O)n1" , pIC50: 9.30

Recorded result, "CCS(=O)(=O)n1cc(-c2nc(Nc3cc(Cl)c(N4CCC(N5CCN(C)CC5)CC4)cc3OC)ncc2Cl)c2ccccc21" , pIC50: 6.84

* * *

test method notes: Clearance in cynomolgus monkey at 1 mg/kg, iv by LC-MS/MS analysis
Type: ADME, organism-based, Macaca fascicularis
condition description: in vivo
readout label: clearance (mL/min/kg)
Provide only the numeric value, understood in mL/min/kg.

Recorded result, CC(C)c1ccc(N2CC(CS(C)(=O)=O)C2C)c2cnc(Nc3ccnc(N4CCC(O)C(C)(F)C4)n3)cc12 (stereo unspecified) , clearance: 31.8

* * *

test method notes: Intrinsic clearance in human liver microsomes
Format: ADME, Microsome
readout label: CLH (µL/min/mg)
Provide only the numeric value, understood in µL/min/mg.

Recorded result, COC1CCN(c2nccc(Nc3cc4c(C(C)C)ccc(N5CC(CS(C)(=O)=O)C5C)c4cn3)n2)CC1F (stereo unspecified) , CLH: 89

* * *

test target: Epidermal growth factor receptor (Homo sapiens, UniProt P00533, C797S/L858R/T790M)
test method notes: Inhibition of EGFR L858R/T790M/C797S triple mutant (unknown origin)
readout label: pIC50
pIC50 is a log-scale quantity: -log10 of the concentration expressed in molar.

The recorded pIC50 with Epidermal growth factor receptor (Homo sapiens, UniProt P00533, C797S/L858R/T790M) for "CN1CCN(C2CCN(c3ccc(Nc4ncc(Cl)c(Nc5ccccc5P(C)(C)=O)n4)cc3Cl)CC2)CC1" was 9.15

The recorded pIC50 with Epidermal growth factor receptor (Homo sapiens, UniProt P00533, C797S/L858R/T790M) for "Cc1cc(Nc2ncc(Cl)c(Nc3ccccc3NS(=O)(=O)C3CC3)n2)ccc1N1CCC(N(C)C)CC1" was 10.52

The recorded pIC50 with Epidermal growth factor receptor (Homo sapiens, UniProt P00533, C797S/L858R/T790M) for "COCCCc1nc(-c2ccc(F)cc2)c(-c2ccnc3[nH]c(-c4ccccc4)cc23)[nH]1" was 8.22

The reported numbers originate from ChEMBL document CHEMBL6087440.
